Target: T1, 4H3427-AA
T1 chain: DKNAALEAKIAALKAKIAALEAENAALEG
Assay: two-hybrid library CCmax;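 further: natural log of median RNA to DNA barcode read ratio; higher means stronger binding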
Conditions: mean of both orientations
Result Type: interaction score

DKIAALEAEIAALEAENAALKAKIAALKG [4H2078-AA] = -0.664
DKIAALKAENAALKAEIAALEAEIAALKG [4H2754-AA] = -1.7
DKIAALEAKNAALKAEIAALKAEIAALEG [4H2505-AA] = -1.04
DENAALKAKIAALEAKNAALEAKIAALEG [4H1845-AA] = -1.86
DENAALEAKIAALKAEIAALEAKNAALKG [4H1352-AA] = 0.842
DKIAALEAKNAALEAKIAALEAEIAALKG [4H2466-AA] = -1.39
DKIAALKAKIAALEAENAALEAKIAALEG [4H2837-AA] = -2.38
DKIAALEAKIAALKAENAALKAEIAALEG [4H2393-AA] = -1.45
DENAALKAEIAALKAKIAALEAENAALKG [4H1636-AA] = -0.846
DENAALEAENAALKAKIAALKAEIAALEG [4H1257-AA] = -1.17

I. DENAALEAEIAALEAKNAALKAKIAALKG [4H1086-AA]
II. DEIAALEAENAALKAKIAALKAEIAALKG [4H234-AA]
Which of the two gives a bigger number for interaction score: I or II ? # reply format: chosen label
I

A. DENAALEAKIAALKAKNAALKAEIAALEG [4H1401-AA]
B. DKNAALEAKIAALEAEIAALKAKNAALEG [4H3343-AA]
// compare measured interaction score between A and B ; output the lower one # reply format: chosen label
A

meta.source: paper PMC10397247
